# EXPERIMENTAL SYSTEM: GABARAPL1 (UniProt Q9H0R8 1-117)
# Sequence (Q9H0R8 whole entry): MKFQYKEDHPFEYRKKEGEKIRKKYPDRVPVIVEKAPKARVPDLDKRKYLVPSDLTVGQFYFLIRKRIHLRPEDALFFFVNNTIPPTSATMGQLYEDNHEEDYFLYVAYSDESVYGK
# ASSAY REMARKS: ITC

| BINDER | Kd (µM) |
| --- | --- |
| SSPVEELLTMEDEGNSDMLVVTTKAGLLE (domain or fragment, UniProt Q86VP1 123-151, looked up) [TAX1BP1(123-151)] | 9.54 |
